tested on: OVCAR-8; assay: NCI tumour cell line growth inhibition, 48 h
Calls of active or inactive are those of the source. Rule as the data show it: active = GI50 up to about 1.1 µM and inactive = higher.
Please reply with one of these outcomes: active, inactive

Some solved cases for reference:
compound=CCOC(=O)c1c(SCCN(CC)CC)n(-c2ccccc2)c(=S)n(-c2ccccc2)c1=O assigned_label=inactive
compound="CC(C(=O)O)/C(=C\\c1ccc2c(c1)OCO2)C(=O)O (stereo not given)" assigned_label=inactive
compound="CCC1([N+](=O)[O-])CC2C=CC1C2 (stereo not given)" assigned_label=inactive
compound="CSC1(C)CC2C(CC1N1CCCCC1)C2(C)C (stereo not given)" assigned_label=inactive
compound=C/C(=N/c1[nH]c(=O)cc2c1C(=O)CC2)N(C)C assigned_label=inactive
compound=O=C(/C=C/c1ccc([N+](=O)[O-])cc1)N1CCN(CCOC(c2ccc(F)cc2)c2ccc(F)cc2)CC1 assigned_label=inactive
compound="CC(C)C1CC(O)O[C@@H]([C@@H](C)[C@H]2CC(=O)[C@@H]3[C@@H]4[C@@H](O)[C@H](O)[C@H]5[C@@H](O)[C@H](O)CC[C@]5(C)[C@H]4CC[C@]23C)C1 (stereo not given in full)" assigned_label=inactive
compound=CN(C)C(=S)/N=c1\ssc(=S)n1Cc1ccco1 assigned_label=inactive

Next item in the queue.
I would be grateful if you could indicate the recorded call for `Cc1nn(C(=O)CC(=O)Nc2ccccc2Cl)c(C)c1/N=N/c1ccccc1Cl` .
inactive

====

Reported GI50 values follow for various compounds
tested on: IGROV-1; test: NCI tumour cell line growth inhibition, 48 h
Calls of active or inactive are those of the source. Rule as the data show it: active = GI50 up to about 1.1 µM and inactive = higher.

// Input: `COC(=O)[C@H](COC(C)(C)C)NC(=O)N[C@H](C)c1ccccc1` . Output its GI50 only.
> 100 µM (inactive)

// Input: `Oc1ccc(-c2nc(-c3cccnc3)c(-c3ccc(Cl)cc3)[nH]2)cc1` . Output its GI50 only.
10.9 µM (inactive)

// Input: CCOC(=O)c1nc2c3c(ncn2n1)Oc1c(c(-c2ccccc2)nn1-c1ccccc1)C3c1ccc(OC)c(OC)c1 (stereo not given) . Output its GI50 only.
52.1 µM (inactive)

// Input: `Cc1c(C#N)c2nnn(-c3ccccc3)c(=O)n2c1-c1ccccc1` . Output its GI50 only.
1.48 µM (inactive)

// Input: O=[N+]([O-])c1nccn1CC(O)CN1CC1 (stereo not given) . Output its GI50 only.
71.3 µM (inactive)

====

tested on: SNB-75; assay: NCI tumour cell line growth inhibition, 48 h
The source made the active and inactive calls. No stated cut-off is given here; in the data, active = GI50 up to about 1.1 µM and inactive = higher. Residues, ends and D or L forms follow the SMILES beside them. *: point of attachment. Boc = CC(C)(C)OC(=O)*; OBn = c1ccc(CO*)cc1; Bn = c1ccc(C*)cc1
observation_type: GI50

molecule=Cc1ncc(CSc2ccccc2N)c(CO)c1O recorded_value="> 100 µM (inactive)"
molecule="COC(=O)C1=CC(O)CCC1c1ccc(OC)cc1 (centres undefined)" recorded_value="> 100 µM (inactive)"
molecule="CC(C)CC(NC(=O)C(Cc1ccccc1)NC(=O)C(COCc1ccccc1)NC(=O)OC(C)(C)C)C(=O)OCc1ccccc1 (stereo not drawn) (Boc-Ser(Bn)-Phe-Leu-OBn; configuration not given here)" recorded_value="22.1 µM (inactive)"
molecule=CCOC(=O)c1c(SCCN(CC)CC)n(-c2ccccc2)c(=S)n(-c2ccccc2)c1=O recorded_value="8.81 µM (inactive)"
molecule=CSc1ccc(/C=C2\CN(C)C/C(=C\c3ccc(SC)cc3)C2=O)cc1 recorded_value="12.5 µM (inactive)"
molecule="O=C1NC(=O)C2C(=O)NC(=O)C1C2Cc1ccco1 (centres undefined)" recorded_value="> 100 µM (inactive)"
molecule="Cc1ccc(NC(=O)CC2Sc3ccccc3NC2=O)cc1C (centres undefined)" recorded_value="39.8 µM (inactive)"
molecule=CN(CCN(C)C(=O)CCn1ccc(=O)[nH]c1=O)C(=O)CCn1ccc(=O)[nH]c1=O recorded_value="22.4 µM (inactive)"

// Input: `CN(C)c1ccc(/C=N/c2nc3cc4sc(/N=C/c5ccc(N(C)C)cc5)nc4cc3s2)cc1` . Output its GI50 only.
63.2 µM (inactive)

====

system: Malme-3M; assay: NCI tumour cell line growth inhibition, 48 h
Calls of active or inactive are those of the source. No stated cut-off is given here; in the data, active = GI50 up to about 1.1 µM and inactive = higher.
observation_type: GI50

Examples with answers:
compound=Cc1c(C)c(S(=O)(=O)N(CCCN)OCCCN)c(C)c2c1OC(C)(C)CC2 observation_type=GI50 recorded_value="13.6 µM (inactive)"
compound=Cc1cccc2c1NC(=S)[C@@H]1CCCN1C2=O observation_type=GI50 recorded_value="> 100 µM (inactive)"
compound=O=C(O)c1ccc(Nc2nc3cc(C(F)(F)F)ccc3n3cccc23)cc1 observation_type=GI50 recorded_value="84.7 µM (inactive)"

// Input: `Fc1ccc(/N=C2C=C/C(=N\c3ccc(F)cc3)c3ccccc3\2)cc1` . Output its GI50 only.
> 100 µM (inactive)

// Input: O=C1c2ccccc2C2(Br)C(=O)c3ccccc3C12 (stereo unspecified) . Output its GI50 only.
> 100 µM (inactive)

// Input: `O=c1c2ccccc2c2c1c1c3ccccc3c(=O)c1c1c3ccccc3c(=O)c21` . Output its GI50 only.
> 100 µM (inactive)

// Input: `COC(=O)[C@H](Cc1c[nH]c2ccccc12)NC(=O)c1ccc(CNC(=O)/C=C/c2cccc(Oc3ccccc3)c2)cc1` . Output its GI50 only.
22.8 µM (inactive)

// Input: `O=[N+]([O-])c1ccccc1S(=O)(=O)c1ccccc1` . Output its GI50 only.
> 100 µM (inactive)

// Input: `CC(=O)CC[N+](C)(C)C` . Output its GI50 only.
16.1 µM (inactive)

// Input: O=S(=O)(CCC[C@H]1[C@@H](CCOCc2ccccc2)C2CCCN1O2)c1ccccc1 (stereo partly specified) . Output its GI50 only.
> 100 µM (inactive)

// Input: `CCO/N=C(/N)c1ncn(Cc2ccccc2)c1NCC(OCC)OCC` . Output its GI50 only.
> 100 µM (inactive)

// Input: `COc1ccc([C@H]2CC(=O)C[C@H](c3ccc(OC)cc3)C23C(=O)c2ccccc2C3=O)cc1` . Output its GI50 only.
5 µM (inactive)

// Input: `O=C(N/C(=C\c1ccc([N+](=O)[O-])cc1)c1nc2ccccc2[nH]1)c1ccccc1` . Output its GI50 only.
> 100 µM (inactive)

// Input: COc1cc(C2c3cc4c(cc3[C@@H](Nc3ccc5c(c3)OCCO5)C3COC(=O)[C@H]23)OCO4)cc(OC)c1O (stereo partly specified) . Output its GI50 only.
1.6 µM (inactive)

// Input: COc1ccc2c(c1)C1Oc3ccccc3CC1(O)CO2 (stereo unspecified) . Output its GI50 only.
> 100 µM (inactive)

// Input: COC(=O)C1[C@H](c2ccc3c(c2)OCO3)OC(=O)[C@]1(C(=O)OC)C(=O)c1ccc(OC)c(OC)c1 (stereo partly specified) . Output its GI50 only.
84.9 µM (inactive)

// Input: N#CC1C(=O)N(c2ccccc2)NC12OC(=O)c1ccncc12 (stereo unspecified) . Output its GI50 only.
> 20 µM (inactive)

// Input: Cc1nn(C(=O)c2ccccc2O)c2c1C(c1ccccc1)SC(=N)N2 (stereo unspecified) . Output its GI50 only.
0.479 µM (active)

// Input: COc1ccc(N2C(=O)C3c4[nH]c5c(C)cccc5c4C4CCC(C(C)(C)C)CC4C3C2=O)cc1 (stereo unspecified) . Output its GI50 only.
> 10 µM (inactive)

// Input: `Sc1nnc(COc2ccc(Cl)cc2Cl)[nH]1` . Output its GI50 only.
> 100 µM (inactive)

// Input: `CCOC(=O)c1cccc(/N=N/c2ncc(/C=C/C(=O)OC)[nH]2)c1` . Output its GI50 only.
22.6 µM (inactive)

====

tested on: HCT-116; assay: NCI tumour cell line growth inhibition, 48 h
Active and inactive are the calls of the source. No stated cut-off is given here; in the data, active = GI50 up to about 1.1 µM and inactive = higher.
Please reply with one of these outcomes: label 1 (active), label 0 (inactive)

Some solved cases for reference:
compound="COc1ccc(C2c3cc4c(cc3OC3(OC)COC(=O)C23)OCO4)c(OC)c1 (stereo unspecified)" assigned_label="label 0"
compound=O=C(NCc1ccccc1)c1cc2ccccc2o/c1=N\c1ccccc1F assigned_label="label 0"
compound=CC(C)(C)c1c2c(c(C(C)(C)C)c3c1OCN(Cc1ccccc1)C3)OCN(Cc1ccccc1)C2 assigned_label="label 0"

I would be grateful if you could indicate the recorded call for `COc1ccc2c(c1)/C(=C(\C(Cl)=C(\Cl)N1CCCCC1)[N+](=O)[O-])N2` .
label 0

I would be grateful if you could indicate the recorded call for CC(SC(=S)N1CCCC1)C(=O)Nc1nnc(-c2ccc(Cl)cc2)o1 (stereo unspecified) .
label 0

I would be grateful if you could indicate the recorded call for `CCCCCCCCCc1c(Cl)nc(Cl)nc1Cl` .
label 0

I would be grateful if you could indicate the recorded call for `CCCC(=O)NC(Nc1ccc(S(=O)(=O)Nc2ccc(OC)nn2)cc1)(C(F)(F)F)C(F)(F)F` .
label 0

I would be grateful if you could indicate the recorded call for Cc1ccc(NC(=O)CC2Sc3ccccc3NC2=O)cc1C (stereo unspecified) .
label 0

I would be grateful if you could indicate the recorded call for COc1ccc2c(c1)C1Oc3ccccc3CC1(O)CO2 (stereo unspecified) .
label 0

I would be grateful if you could indicate the recorded call for Nc1ncnn2c(C3OC(CO)C(O)C3O)ccc12 (stereo unspecified) .
label 1

I would be grateful if you could indicate the recorded call for `O=C(O)c1ccc(Nc2nc3cc(C(F)(F)F)ccc3n3cccc23)cc1` .
label 0
